# study-target: T1, rhesus monkey ERBB3 His tag, monomeric (rhesus monkey (Macaca mulatta), UniProt P21860 20-643 (human entry), limits assumed)
# T1 chain: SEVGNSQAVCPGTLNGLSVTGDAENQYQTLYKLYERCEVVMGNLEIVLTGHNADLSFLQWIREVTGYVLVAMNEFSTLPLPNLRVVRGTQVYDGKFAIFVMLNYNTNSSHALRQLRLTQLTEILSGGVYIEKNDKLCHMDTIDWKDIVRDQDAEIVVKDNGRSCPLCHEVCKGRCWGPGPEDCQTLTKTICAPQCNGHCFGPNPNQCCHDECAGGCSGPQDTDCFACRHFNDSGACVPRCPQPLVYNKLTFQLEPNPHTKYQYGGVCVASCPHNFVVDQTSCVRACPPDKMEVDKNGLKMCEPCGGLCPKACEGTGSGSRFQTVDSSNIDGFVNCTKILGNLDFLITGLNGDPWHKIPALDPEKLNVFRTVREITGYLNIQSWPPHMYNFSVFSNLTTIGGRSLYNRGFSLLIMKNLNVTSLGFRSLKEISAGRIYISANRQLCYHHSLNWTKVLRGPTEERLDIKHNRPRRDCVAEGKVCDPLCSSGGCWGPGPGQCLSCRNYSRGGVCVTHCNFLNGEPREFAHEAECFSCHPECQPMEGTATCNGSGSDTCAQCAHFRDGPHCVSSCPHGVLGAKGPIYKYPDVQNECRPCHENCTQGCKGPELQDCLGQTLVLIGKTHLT
# protocol-details: SPR (Biacore), captured IgG, monomeric ERBB3-His analyte
// Kd lookup, one value per entry
quantity-name: Kd (nM)

binder="15G11 IgG1null (antibody, V domains shown, Human IgG1null (L234A, L235A, G237A) and human Ckappa) VH: QVQLVESGGGLVKPGGSLRLSCAASGFTFSDYGMSWIRQAPGKGLEWVSTISDSGSYTYYPDSVKGRFTISRDNAKNSLYLQMNSLRAEDTAVYYCARELGDYDGFDYWGQGTLVTVSS VL: DIQMTQSPSSLSASVGDRVTITCRASQEISSYLSWYQQKPGKAPKLLIYAASSLDSGVPSRFSGSGSGTDFTLTISSLQPEDFATYYCLQYDSTPYTFGGGTKVEIK" numeric_result=0.33
binder="15D10 IgG1null (antibody, V domains shown, Human IgG1null (L234A, L235A, G237A) and human Ckappa) VH: QVQLVESGGGLVKPGGSLRLSCAASGFTFSDYGMSWIRQAPGKGLEWVSTISDGGSYTYYADNVKGRFTISRDNAKNSLYLQMNSLRAEDTAVYYCAREWGDYDGFDFWGQGTLVTVSS VL: DIQMTQSPSSLSASVGDRVTITCRASQSISSYLSWYQQKPGKAPKLLIYAASTLQSGVPSRFSGSGSGTDFTLTISSLQPEDFATYYCLQYDSTPLTFGGGTKVEIK" numeric_result=0.54
